Property: pRB (%); scope: individual sequences
Tested on: human adenocarcinoma cells
experimental-protocol: Recoding via quantification of pRB and P53, adenocarcinoma cells
Format: cell-based
condition-context: Table 6, peptide in association with PET
Expressed in %, but write only the number.

Below: 6 sequences and their reported pRB (%).
# sequence-data, target, result-units, pRB (%)
data = [
    ("RVPSTSSVPAEESNITVQIM (Non-cyclic GFR-binding peptide) [SEQ ID NO: 234]", "human adenocarcinoma cells", "%", 22),
    ("RVPSTSSAPTKMKPLSMLYV (Non-cyclic GFR-binding peptide) [SEQ ID NO: 227]", "human adenocarcinoma cells", "%", 14),
    ("GIPEPSSAPVGQEPLPMVYY (Non-cyclic GFR-binding peptide) [SEQ ID NO: 230]", "human adenocarcinoma cells", "%", 19),
    ("STPPTSSTPTKMSNITTQIM (Non-cyclic GFR-binding peptide) [SEQ ID NO: 233]", "human adenocarcinoma cells", "%", 23),
    ("AASKASSSRVKMSPINVLYF (Non-cyclic GFR-binding peptide) [SEQ ID NO: 225]", "human adenocarcinoma cells", "%", 12),
    ("AASKASSVPEKMRPVQTRKI (Non-cyclic GFR-binding peptide) [SEQ ID NO: 237]", "human adenocarcinoma cells", "%", 22),
]

Prompt line: human adenocarcinoma cells / pRB (%) / KIPKASSVPAQLEPLPIVYY (Non-cyclic GFR-binding peptide) [SEQ ID NO: 229] : value?
Response line: 23

Prompt line: human adenocarcinoma cells / pRB (%) / GIPEPSSAPVEEEPLTTLYY (Non-cyclic GFR-binding peptide) [SEQ ID NO: 232] : value?
Response line: 13

Prompt line: human adenocarcinoma cells / pRB (%) / AASKASSVPQRLRSVKVAKV (Non-cyclic GFR-binding peptide) [SEQ ID NO: 235] : value?
Response line: 26

Prompt line: human adenocarcinoma cells / pRB (%) / KIPKASSVPTKMKPLSVLYV (Non-cyclic GFR-binding peptide) [SEQ ID NO: 226] : value?
Response line: 16
